Value source: ChEMBL document CHEMBL4765387

Assay: Peak drug concentration in overnight-fasted ICR mouse ileum at 50 mg/kg, po measured after 2 hr by LC-MS/MS analysis
Format: ADME, organism-based
Set-up: route oral, dose 50 mg/kg, time 2 hrs
Measured Endpoint: Cmax (ng/g)
Answers are plain numbers, in ng/g.

Query: # get_value(readout='Cmax', item= CCOCOC(=O)c1coc2ccc(Oc3ccncc3C(=O)N3CCN(C4CC4)c4ccccc43)cc12 )
Reply: 10200

---

Assay: Cmax in overnight-fasted ICR mouse systemic circulation at 50 mg/kg, po measured after 1 hr by LC-MS/MS analysis
Assay type: ADME, organism-based
Set-up: route oral, time 1 hrs, dose 50 mg/kg
Measured Endpoint: Cmax (ng/mL)
Answers are plain numbers, in ng/mL.

Query: # get_value(readout='Cmax', item= CCOCOC(=O)c1coc2ccc(Oc3ccncc3C(=O)N3CCN(C4CC4)c4ccccc43)cc12 )
Reply: 3
